target or test system: T1, Pig ASGR-1 (pig)
T1 construct: Expressed on HEK 293 cells or as membrane prep on beads; cDNA GenBank NM_001244458
T1 chain: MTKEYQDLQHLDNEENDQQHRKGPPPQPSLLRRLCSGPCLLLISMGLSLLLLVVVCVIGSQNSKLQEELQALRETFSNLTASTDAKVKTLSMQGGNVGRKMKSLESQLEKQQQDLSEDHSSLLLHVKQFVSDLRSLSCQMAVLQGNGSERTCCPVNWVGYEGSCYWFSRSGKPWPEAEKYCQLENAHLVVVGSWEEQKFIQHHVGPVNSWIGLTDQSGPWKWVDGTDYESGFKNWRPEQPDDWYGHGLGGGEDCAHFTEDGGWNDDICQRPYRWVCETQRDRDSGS
assay overview: FACS on transfected HEK 293 cells or membrane preps on beads; Y = signal at least 2x irrelevant IgG
property: binding result

- 4H6 (antibody, V domains shown, Tested as hybridoma supernatant at normalized concentration) VH: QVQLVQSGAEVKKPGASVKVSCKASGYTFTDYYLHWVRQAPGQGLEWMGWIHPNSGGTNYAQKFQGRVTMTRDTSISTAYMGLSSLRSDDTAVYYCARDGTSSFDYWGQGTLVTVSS VL: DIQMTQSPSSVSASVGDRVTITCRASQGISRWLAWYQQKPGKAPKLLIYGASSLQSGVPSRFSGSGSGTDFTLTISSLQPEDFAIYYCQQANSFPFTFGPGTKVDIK: binds
- 7G4 (antibody, V domains shown, Tested as hybridoma supernatant at normalized concentration) VH: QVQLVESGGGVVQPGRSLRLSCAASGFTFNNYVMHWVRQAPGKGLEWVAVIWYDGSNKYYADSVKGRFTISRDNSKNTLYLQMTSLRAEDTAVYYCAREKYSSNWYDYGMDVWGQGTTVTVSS VL: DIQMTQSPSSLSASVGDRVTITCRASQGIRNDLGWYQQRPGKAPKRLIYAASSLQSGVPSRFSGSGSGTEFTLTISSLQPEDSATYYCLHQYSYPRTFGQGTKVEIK: binds
- 184E7 (antibody, V domains shown, Tested as hybridoma supernatant at normalized concentration) VH: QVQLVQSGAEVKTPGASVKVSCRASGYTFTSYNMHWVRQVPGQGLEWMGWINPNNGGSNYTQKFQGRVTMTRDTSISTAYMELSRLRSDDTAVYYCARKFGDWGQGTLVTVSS VL: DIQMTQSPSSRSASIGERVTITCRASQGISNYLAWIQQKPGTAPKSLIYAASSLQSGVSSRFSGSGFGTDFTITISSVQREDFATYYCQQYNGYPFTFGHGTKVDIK: binds
